# credit: ChEMBL document CHEMBL1139802

target: UniProtKB P51639; experiment: Inhibition of HMG-CoA reductase in rat liver microsomes; parameters: species or system Microsome
Measured property: IC50 (µM)

                         structure_notation  measured_property  measured_value
0  Cc1ccc(CN(C)C(=O)c2nn(-c3ccc(F)cc3)c(OC[C@@H](O)C[C@@H](O)CC(=O)O)c2C(C)C)cc1               IC50           0.037
1  CC(C)c1c(C(=O)N(C)CC2CCCCC2)nn(-c2ccc(F)cc2)c1OC[C@@H](O)C[C@@H](O)CC(=O)O               IC50          0.0062
2  CC(C)c1c(C(=O)NCc2cccc(F)c2F)nn(-c2ccc(F)cc2)c1OC[C@@H](O)C[C@@H](O)CC(=O)O               IC50           0.002
3  COc1cc(CN(C)C(=O)c2nn(-c3ccc(F)cc3)c(OC[C@@H](O)C[C@@H](O)CC(=O)O)c2C(C)C)cc(OC)c1               IC50           0.043

* * *

Target: 3-hydroxy-3-methylglutaryl-coenzyme A reductase (Rattus norvegicus, UniProt P51639)
Sequence (P51639 whole entry): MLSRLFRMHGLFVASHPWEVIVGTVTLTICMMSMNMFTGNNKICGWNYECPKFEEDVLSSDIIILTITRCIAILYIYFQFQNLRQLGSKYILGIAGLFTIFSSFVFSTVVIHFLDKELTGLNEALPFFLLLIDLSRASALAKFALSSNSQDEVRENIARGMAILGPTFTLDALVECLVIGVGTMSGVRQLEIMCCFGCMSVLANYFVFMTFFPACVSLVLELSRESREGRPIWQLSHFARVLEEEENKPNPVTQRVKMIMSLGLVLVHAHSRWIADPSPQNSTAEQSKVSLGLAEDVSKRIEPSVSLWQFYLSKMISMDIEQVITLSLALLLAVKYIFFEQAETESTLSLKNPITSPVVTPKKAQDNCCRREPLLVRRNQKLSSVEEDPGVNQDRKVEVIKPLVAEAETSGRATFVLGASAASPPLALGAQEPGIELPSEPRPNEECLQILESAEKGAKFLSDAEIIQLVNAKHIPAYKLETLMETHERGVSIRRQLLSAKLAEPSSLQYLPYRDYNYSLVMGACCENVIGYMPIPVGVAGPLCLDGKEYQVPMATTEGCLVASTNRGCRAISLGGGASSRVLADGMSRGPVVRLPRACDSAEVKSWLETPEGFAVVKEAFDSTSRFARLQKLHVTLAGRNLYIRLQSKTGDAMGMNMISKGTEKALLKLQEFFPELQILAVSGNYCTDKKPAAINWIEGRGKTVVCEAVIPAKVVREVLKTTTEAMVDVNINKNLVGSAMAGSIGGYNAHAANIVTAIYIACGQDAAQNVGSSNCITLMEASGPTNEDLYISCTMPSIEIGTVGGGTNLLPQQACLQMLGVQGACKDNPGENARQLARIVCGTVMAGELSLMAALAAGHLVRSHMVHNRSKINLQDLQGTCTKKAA
pIC50: −log10 of the molar value.
Measured property: pIC50

>>> df
                         structure_notation  measured_property  measured_value
0  COc1cccc(CN(C)C(=O)c2nn(-c3ccc(F)cc3)c(OC[C@@H](O)C[C@@H](O)CC(=O)O)c2C(C)C)c1              pIC50            7.68
1  CCOc1cccc(CN(C)C(=O)c2nn(-c3ccc(F)cc3)c(OC[C@@H](O)C[C@@H](O)CC(=O)O)c2C(C)C)c1              pIC50            7.80
2  CC(C)c1c(C(=O)NCc2ccccn2)nn(-c2ccc(F)cc2)c1OC[C@@H](O)C[C@@H](O)CC(=O)O              pIC50            7.60
3  CC(C)c1nc(N(C)S(C)(=O)=O)nc(-c2ccc(F)cc2)c1/C=C/[C@@H](O)C[C@@H](O)CC(=O)O              pIC50            8.68
4  CC(C)c1c(C(=O)N2CCCCC2)nn(-c2ccc(F)cc2)c1OC[C@@H](O)C[C@@H](O)CC(=O)O              pIC50            7.33
5  CC(C)c1c(C(=O)N(C)Cc2cccc(F)c2)nn(-c2ccc(F)cc2)c1CC[C@@H](O)C[C@@H](O)CC(=O)O              pIC50            8.39
6  CC(C)c1c(C(=O)N(C)[C@H](C)c2ccccc2)nn(-c2ccc(F)cc2)c1OC[C@@H](O)C[C@@H](O)CC(=O)O              pIC50            7.68
